SYSTEM_UNDER_TEST: ENaC (Epithelial Sodium Channel) (Mus musculus, UniProt Q61180+Q9WU38+Q9WU39)
Construct: Mouse kidney M-1 cells were cultivated in DMEM; endogenous in cells
Sequence (Q61180 whole entry): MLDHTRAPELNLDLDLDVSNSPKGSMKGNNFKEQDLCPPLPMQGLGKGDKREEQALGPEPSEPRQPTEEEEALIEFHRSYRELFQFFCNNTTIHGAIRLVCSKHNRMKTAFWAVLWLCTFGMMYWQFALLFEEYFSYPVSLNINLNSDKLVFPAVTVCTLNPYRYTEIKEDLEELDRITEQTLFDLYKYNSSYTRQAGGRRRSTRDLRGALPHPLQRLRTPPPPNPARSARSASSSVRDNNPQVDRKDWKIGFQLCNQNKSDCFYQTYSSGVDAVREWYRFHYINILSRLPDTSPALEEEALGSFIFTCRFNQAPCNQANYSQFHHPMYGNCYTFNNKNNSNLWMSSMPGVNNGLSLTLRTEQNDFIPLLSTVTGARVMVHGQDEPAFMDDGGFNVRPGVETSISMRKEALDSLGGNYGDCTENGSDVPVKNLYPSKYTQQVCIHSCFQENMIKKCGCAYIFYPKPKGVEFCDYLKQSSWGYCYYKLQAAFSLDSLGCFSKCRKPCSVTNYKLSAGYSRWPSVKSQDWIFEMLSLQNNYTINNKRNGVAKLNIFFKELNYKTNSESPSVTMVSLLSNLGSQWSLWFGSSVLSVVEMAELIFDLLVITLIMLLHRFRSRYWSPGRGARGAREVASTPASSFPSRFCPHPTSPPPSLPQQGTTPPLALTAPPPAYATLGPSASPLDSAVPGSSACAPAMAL
Sequence (Q9WU38 whole entry): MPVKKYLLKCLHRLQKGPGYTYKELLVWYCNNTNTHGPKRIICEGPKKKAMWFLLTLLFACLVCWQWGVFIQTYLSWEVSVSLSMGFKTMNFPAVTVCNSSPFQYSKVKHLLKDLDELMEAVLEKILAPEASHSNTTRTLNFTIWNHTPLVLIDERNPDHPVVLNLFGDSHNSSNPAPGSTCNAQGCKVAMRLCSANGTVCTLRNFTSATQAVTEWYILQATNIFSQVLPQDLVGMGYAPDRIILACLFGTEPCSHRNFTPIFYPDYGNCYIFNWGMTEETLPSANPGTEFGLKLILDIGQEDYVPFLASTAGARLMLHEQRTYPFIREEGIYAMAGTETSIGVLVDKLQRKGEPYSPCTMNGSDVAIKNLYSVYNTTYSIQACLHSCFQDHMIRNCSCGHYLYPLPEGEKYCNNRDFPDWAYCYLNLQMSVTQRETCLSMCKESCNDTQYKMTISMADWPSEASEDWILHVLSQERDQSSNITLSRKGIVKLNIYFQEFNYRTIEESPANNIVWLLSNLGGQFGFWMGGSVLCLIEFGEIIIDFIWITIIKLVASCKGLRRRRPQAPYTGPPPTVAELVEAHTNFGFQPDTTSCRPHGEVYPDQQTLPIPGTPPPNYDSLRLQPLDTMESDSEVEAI
Sequence (Q9WU39 whole entry): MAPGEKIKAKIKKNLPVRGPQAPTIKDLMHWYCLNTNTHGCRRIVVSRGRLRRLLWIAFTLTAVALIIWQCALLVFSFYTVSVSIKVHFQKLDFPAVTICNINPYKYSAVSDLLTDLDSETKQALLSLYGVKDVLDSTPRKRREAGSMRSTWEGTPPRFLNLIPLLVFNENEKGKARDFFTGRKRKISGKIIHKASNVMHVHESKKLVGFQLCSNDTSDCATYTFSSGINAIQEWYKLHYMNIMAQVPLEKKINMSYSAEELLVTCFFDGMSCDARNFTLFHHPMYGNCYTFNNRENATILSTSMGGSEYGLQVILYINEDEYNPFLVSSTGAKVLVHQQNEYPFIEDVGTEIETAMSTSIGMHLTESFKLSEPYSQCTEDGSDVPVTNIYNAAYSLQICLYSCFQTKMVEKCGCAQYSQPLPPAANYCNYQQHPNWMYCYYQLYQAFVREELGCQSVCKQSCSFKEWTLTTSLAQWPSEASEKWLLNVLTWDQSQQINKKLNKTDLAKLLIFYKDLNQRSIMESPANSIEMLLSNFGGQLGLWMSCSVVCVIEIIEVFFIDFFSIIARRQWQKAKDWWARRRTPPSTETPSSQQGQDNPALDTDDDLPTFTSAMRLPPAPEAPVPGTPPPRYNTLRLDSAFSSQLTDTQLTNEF
EXPERIMENT_NOTES: Ussing chamber: inhibition of amiloride sensitive short circuit current (I_sc) in M-1 cells
RUN_CONDITIONS: mouse kidney M-1 cells
MEASUREMENT_TYPE: log10 IC50 (log10 of the value in nM)
Scale type: logarithmic (base 10). Underlying IC50 unit: nM.

Solved cases below.
MOLECULAR_STRING: NC(=NC(=O)c1nc(Cl)c(N)nc1N)NC1CCN(Cc2ccc(-c3cn(CCOCCOCCOCCNC(=O)c4cc(OCCOCCOCCO)cc(OCCOCCOCCO)c4)nn3)cc2)CC1
MEASUREMENT_TYPE: log10 IC50
ENDPOINT_RESULT: 1.65
//
MOLECULAR_STRING: NC(=NC(=O)c1nc(Cl)c(N)nc1N)NC1CCN(Cc2cc(C(=O)O)cc(C(=O)NCCOCCO)c2)CC1
MEASUREMENT_TYPE: log10 IC50
ENDPOINT_RESULT: 1.72
//
MOLECULAR_STRING: CN(C)Cc1cn(CCc2ccc(CN3CCC(NC(N)=NC(=O)c4nc(Cl)c(N)nc4N)CC3)cc2)nn1
MEASUREMENT_TYPE: log10 IC50
ENDPOINT_RESULT: 0.85
//
MOLECULAR_STRING: CN(Cc1cn(CCc2ccc(CN3CCC(N/C(N)=N/C(=O)c4nc(Cl)c(N)nc4N)CC3)cc2)nn1)C(=O)CCN
MEASUREMENT_TYPE: log10 IC50
ENDPOINT_RESULT: 0.95
//
MOLECULAR_STRING: C#Cc1ccc(CN2CCC(NC(N)=NC(=O)c3nc(Cl)c(N)nc3N)CC2)cc1
MEASUREMENT_TYPE: log10 IC50
ENDPOINT_RESULT: 0.70

Ask: What value of measured log10 IC50 is listed for NC(=NC(=O)c1nc(Cl)c(N)nc1N)NC1CCN(Cc2ccc(-c3cn(CCOCCOCCOCCNC(=O)c4cc(OCCOCCOCCOCCOC(c5ccccc5)(c5ccccc5)c5ccccc5)cc(OCCOCCOCCOCCOC(c5ccccc5)(c5ccccc5)c5ccccc5)c4)nn3)cc2)CC1 ?
Reply: 1.69

Ask: Please look up its log10 IC50: NC(=NC(=O)c1nc(Cl)c(N)nc1N)NC1CCN(Cc2ccc(-n3cc(COC[B-](F)(F)F)nn3)cc2)CC1
Reply: 0.78

Ask: Need log10 IC50, item [N-]=[N+]=Nc1ccc(CN2CCC(N/C(N)=N/C(=O)c3nc(Cl)c(N)nc3N)CC2)cc1
Reply: 0.78

---

SYSTEM_UNDER_TEST: ENaC (Epithelial Sodium Channel) (Mus musculus, UniProt Q61180+Q9WU38+Q9WU39)
Construct: Mouse kidney M-1 cells were cultivated in DMEM; endogenous in cells; host or cells: Mouse kidney M-1 cells (dexamethasone-treated, on transwell filters)
EXPERIMENT_NOTES: Ussing chamber: inhibition of amiloride sensitive short circuit current (I_sc) in M-1 cells
Type: cell-based
RUN_CONDITIONS: mouse kidney M-1 cells
MEASUREMENT_TYPE: IC50 (nM)
Give a bare numeral; the unit nM is implied.

Answered examples (6):
MOLECULAR_STRING: NC(=NC(=O)c1nc(Cl)c(N)nc1N)NC1CCN(Cc2ccc(-c3cn(CCOCCOCCOC(c4ccccc4)(c4ccccc4)c4ccccc4)nn3)cc2)CC1
MEASUREMENT_UNIT: nM
IC50: 6
--
MOLECULAR_STRING: NC(=NC(=O)c1nc(Cl)c(N)nc1N)NC1CCN(Cc2ccc(C(=O)NCCOCCOCCOCCn3cc(CN4CCNCC4)nn3)cc2)CC1
MEASUREMENT_UNIT: nM
IC50: 23
--
MOLECULAR_STRING: CN(Cc1cn(CCc2ccc(CN3CCC(NC(N)=NC(=O)c4nc(Cl)c(N)nc4N)CC3)cc2)nn1)C(=O)CCNCCOCCOCCOCCOC(c1ccccc1)(c1ccccc1)c1ccccc1
MEASUREMENT_UNIT: nM
IC50: 1
--
MOLECULAR_STRING: NC(=NC(=O)c1nc(Cl)c(N)nc1N)NC1CCN(Cc2ccc(CCn3cc(COc4cccc(C(=O)NCCOCCO)c4)nn3)cc2)CC1
MEASUREMENT_UNIT: nM
IC50: 24
--
MOLECULAR_STRING: N/C(=N\C(=O)c1nc(Cl)c(N)nc1N)NC1CCN(Cc2ccc(O)cc2)CC1
MEASUREMENT_UNIT: nM
IC50: 7
--
MOLECULAR_STRING: COc1ccc(CCN2CCC(NC(N)=NC(=O)c3nc(Cl)c(N)nc3N)CC2)cc1
MEASUREMENT_UNIT: nM
IC50: 12

Ask: # IC50 lookup, item COC(=O)COc1ccc(CN2CCC(NC(N)=NC(=O)c3nc(Cl)c(N)nc3N)CC2)cc1OCC(=O)OC
Reply: 7

Ask: Which IC50 value is on record for CN(Cc1cn(CCc2ccc(CN3CCC(NC(N)=NC(=O)c4nc(Cl)c(N)nc4N)CC3)cc2)nn1)C(=O)CCNCCOCCOCCOCCO ?
Reply: 14

Ask: Find the recorded IC50 belonging to N=C(N)c1ccc(CN2CCC(NC(N)=NC(=O)c3nc(Cl)c(N)nc3N)CC2)cc1 and report it.
Reply: 2

---

SYSTEM_UNDER_TEST: ENaC (Epithelial Sodium Channel) (Mus musculus, UniProt Q61180+Q9WU38+Q9WU39)
Construct: Mouse kidney M-1 cells were cultivated in DMEM; endogenous in cells
EXPERIMENT_NOTES: Ussing chamber: inhibition of amiloride sensitive short circuit current (I_sc) in M-1 cells
RUN_CONDITIONS: mouse kidney M-1 cells
Label key: Yes means IC50 under 10 nM; No means IC50 of 10 nM or more.

// known answers, use as guide
MOLECULE: C[N+](C)(C)CCNC(=O)c1cccc(CN2CCC(NC(N)=NC(=O)c3nc(Cl)c(N)nc3N)CC2)c1
SYSTEM_UNDER_TEST: ENaC (Epithelial Sodium Channel) (Mus musculus, UniProt Q61180+Q9WU38+Q9WU39)
DISCRETE_LABEL: Yes
--
MOLECULE: CN(Cc1cn(-c2ccc(CN3CCC(NC(N)=NC(=O)c4nc(Cl)c(N)nc4N)CC3)cc2)nn1)C(=O)CCNCCOCCOCCOCCO
SYSTEM_UNDER_TEST: ENaC (Epithelial Sodium Channel) (Mus musculus, UniProt Q61180+Q9WU38+Q9WU39)
DISCRETE_LABEL: Yes
--
MOLECULE: CC(C)(C)OC(=O)c1ccc(CN2CCC[C@H](NC(N)=NC(=O)c3nc(Cl)c(N)nc3N)C2)cc1
SYSTEM_UNDER_TEST: ENaC (Epithelial Sodium Channel) (Mus musculus, UniProt Q61180+Q9WU38+Q9WU39)
DISCRETE_LABEL: No
--
MOLECULE: CCOP(=O)(OCC)c1ccc(CN2CCC(NC(N)=NC(=O)c3nc(Cl)c(N)nc3N)CC2)cc1
SYSTEM_UNDER_TEST: ENaC (Epithelial Sodium Channel) (Mus musculus, UniProt Q61180+Q9WU38+Q9WU39)
DISCRETE_LABEL: Yes
--
MOLECULE: NCc1ccc(CN2CCC(N/C(N)=N/C(=O)c3nc(Cl)c(N)nc3N)CC2)cc1
SYSTEM_UNDER_TEST: ENaC (Epithelial Sodium Channel) (Mus musculus, UniProt Q61180+Q9WU38+Q9WU39)
DISCRETE_LABEL: Yes
--
MOLECULE: COC(=O)c1ccc(CN2CCC(N/C(N)=N/C(=O)c3nc(Cl)c(N)nc3N)CC2)cc1
SYSTEM_UNDER_TEST: ENaC (Epithelial Sodium Channel) (Mus musculus, UniProt Q61180+Q9WU38+Q9WU39)
DISCRETE_LABEL: Yes

Ask: # TODO verify IC50 < 10 nM strictly for this molecule: N#Cc1ccc(OCCN2CCC(NC(N)=NC(=O)c3nc(Cl)c(N)nc3N)CC2)cc1
Reply: No

Ask: # check: IC50 < 10 nM for NC(=NC(=O)c1nc(Cl)c(N)nc1N)NC1CCN(Cc2cccc(OCC(=O)O)c2)CC1
Reply: No

Ask: Report whether reported IC50 is lower than 10 nM (strictly) for [N-]=[N+]=NCCOCCOCCOCCOc1ccc(CN2CCC(NC(N)=NC(=O)c3nc(Cl)c(N)nc3N)CC2)cc1
Reply: Yes
